test system: MDA-MB-231 breast; experiment: NCI tumour cell line growth inhibition, 48 h
Consider the following compounds and their measured TGI readings.
Response body: numeric value in µM, unit text excluded.

Cn1ccnc1C(=O)/C=C/c1ccc(C(=O)Nc2ccccc2O)cc1 : 12.3

Entry COc1ccc(Cn2cnc3cc(C(=O)Nc4cccc5ccccc45)ccc32)c(OC)c1 ; TGI = 4.31

Entry C/C=C(\CCC1NCCc2c1[nH]c1ccccc21)[Si](C)(C)C (stereo unspecified) ; TGI = 4.56

Entry COCC(=O)OC1CCn2c1nc1c2C(=O)C(C)=C(NC(C)=O)C1=N (stereo unspecified) ; TGI = 8.82

====

system: SK-MEL-2 melanoma; experiment: NCI tumour cell line growth inhibition, 48 h
Measurement kind: TGI

Here is how some compounds turned out for TGI.
COc1ccc(-c2oc3cc(OC)c(OC)c(OC)c3c(=O)c2OC)cc1OC : > 100 µM
COc1cc(S(=O)(=O)Nc2ccc(-c3csc(N4C(=O)C(C)SC4c4ccccc4O)n3)cc2)ccc1Cl (stereo unspecified) : 91.7 µM
C[N+](C)(C)Cc1c(CC#N)[nH]c2ccccc12 : > 100 µM
O=C1/C(=C/c2ccc([N+](=O)[O-])o2)Oc2ccccc21 : 3.73 µM
COc1ccc(Cn2cnc3cc(C(=O)Nc4cccc5ccccc45)ccc32)c(OC)c1 : > 100 µM

Entry CO/N=C(\COc1ccc2c(c1)oc(=O)c1cc(OC)ccc12)c1cccc(OC)c1 ; TGI = > 100 µM

Entry C#C[C@@]1(O)CCCC2=CC(=O)C[C@]21C ; TGI = > 100 µM

Entry Fc1ccc(NCn2nc(COc3ccccc3Cl)n(/N=C/c3ccc(-c4ccc(Cl)cc4Cl)o3)c2=S)cc1Cl ; TGI = 62.6 µM

Entry O=C(O)C(Cc1cnc[nH]1)N=Cc1nc(-c2ccccc2)oc1O (stereo unspecified) ; TGI = > 100 µM

Entry O=C1NC(N/N=C/c2ccccc2)=N/C1=C\c1cccs1 ; TGI = 20.6 µM

Entry O=C1Cc2ccccc2N1c1c(Cl)cccc1Cl ; TGI = > 100 µM

====

system: SK-MEL-2 melanoma; assay: NCI tumour cell line growth inhibition, 48 h
Measurement kind: TGI

Here is how some molecules turned out for TGI.
O=C1OC2c3ccccc3C(=O)C2(c2ccccc2)N1c1ccccc1 (stereo not given) : > 200 µM
O=C1SC(c2ccccc2)(c2ccccc2)c2ccccc21 : > 100 µM
O[C@@H]1CCCN1Cc1cc2cc3c(cc2c2cc(OCc4ccccc4)ccc12)OCO3 : 4.79 µM
O=C1/C(=C/c2ccc(Cl)cc2)N=C(c2ccccc2)N1C1Nc2cc3c(cc2S1)NC(N1C(=O)/C(=C/c2ccc(Cl)cc2)N=C1c1ccccc1)S3 (stereo not given) : > 100 µM
CNC(=O)c1n[nH]n(Cc2ccccc2)c1=S : > 100 µM

Entry CO/N=C(\COc1ccc2c(c1)oc(=O)c1cc(OC)ccc12)c1ccc(F)cc1 ; TGI = 72.8 µM

Entry CCN(CC)c1nc(N(C)C)c2ccc(OC)cc2n1 ; TGI = 36.5 µM

Entry Clc1ccc2c(c1)CC1C[N+]3=C(CCCC3)C1=C2 (stereo not given) ; TGI = > 100 µM

Entry CCCC(=O)/C=C/S/C=C/C(=O)CCC ; TGI = > 100 µM

Entry COc1cc2c3c(n(CCCNC(=O)OCC4c5ccccc5-c5ccccc54)c(=O)c2cc1OC)-c1cc2c(cc1C3=O)OCO2 ; TGI = > 100 µM

====

Consider the following compounds and their measured TGI readings.
system: HCC-2998 colon; experiment: NCI tumour cell line growth inhibition, 48 h

COc1cc(OC)c2cc(C(=O)O)c(=O)oc2c1 : > 100 µM

Entry O=c1[nH]cc(N(CCCl)CCCl)c(=O)[nH]1 ; TGI = 136 µM

====

tested on: HCT-116 colon; experiment: NCI tumour cell line growth inhibition, 48 h
Measurement kind: TGI (µM)
Response body: numeric value in µM, unit text excluded.

CO/N=C(\COc1ccc2c(c1)oc(=O)c1cc(OC)ccc12)c1ccc(F)cc1 : 41.2

Entry O=C(N/N=c1/ccoc2cccnc12)N1CCN(c2ncccn2)CC1 ; TGI = 2.25

====

tested on: PC-3 prostate; experiment: NCI tumour cell line growth inhibition, 48 h
Measurement kind: TGI

Entry COc1ccc2cc3[n+](cc2c1OC)CCc1cc2c(cc1-3)OCO2 ; TGI = > 100 µM

Entry CC(=O)NC(CCCCNC(=O)OC(C)(C)C)C(=O)O (centres undefined) ; TGI = > 100 µM

Entry c1ccc2c(Nc3ccc(Oc4ccc(Nc5c6ccccc6nc6ccccc56)cc4)cc3)c3ccccc3nc2c1 ; TGI = 0.366 µM

Entry O=C(O)c1cncc(C(=O)O)c1 ; TGI = > 100 µM

Entry C=CCOC(=O)CCCCCCCCCCCCCCCOC(=O)c1c(CCC[C@@H](C)O[Si](C)(C)C(C)(C)C)nc(=O)n2c1CC[C@H]2CC1(CC/C=C\[C@H](CC)O[Si](C(C)C)(C(C)C)C(C)C)OCCO1 ; TGI = > 100 µM

Entry COc1cc(C=Nc2ccc(S(N)(=O)=O)cc2)cc(OC)c1 ; TGI = > 50 µM

Entry CC(C)c1ccc2c(c1)C=C1OC(=O)[C@]3(C)CCC[C@@]2(C)C13 (some centres undefined) ; TGI = > 100 µM

Entry COc1cc(Nc2ncc3c(C)nc(-c4cccc(Oc5ccccc5)c4)n3n2)cc(OC)c1OC ; TGI = 24.6 µM

Entry COc1cc(S(=O)(=O)Nc2ccc(-c3csc(N4C(=O)C(C)SC4c4ccccc4O)n3)cc2)ccc1Cl (centres undefined) ; TGI = > 100 µM

====

system: HT29 colon; assay: NCI tumour cell line growth inhibition, 48 h; in the data active means GI50 below about 0.43 µM; inactive means the rest
The reply should be one of these categories: active, inactive

Examples from the recorded data:
O=C(Nc1ccc(Cl)cc1)c1ccc([N+](=O)[O-])o1 : inactive
COc1cc2c(cc1OCCCCCn1c(-c3ccco3)nc3ccccc31)N=C[C@@H]1CCCN1C2=O : active
COc1ccc(N(C)c2nc(Cl)nc3ccn(C)c23)cc1 : active
CS(=O)(=O)Nc1cccc(-c2ccc3c(NC(=O)C4CC4)n[nH]c3c2)c1 : inactive
O=c1oc2ccc(F)cc2c(=O)n1-c1ccc(Cl)cc1F : inactive

Please find the next compound below.
Exercise: Hey, what did the test say about CO/N=C(\COc1ccc2c(c1)oc(=O)c1cc(OC)ccc12)c1ccc(F)cc1 ?
Solution: inactive

====

tested on: MDA-MB-231 breast; experiment: NCI tumour cell line growth inhibition, 48 h
Measurement kind: TGI

O=C1Nc2ccccc2/C1=C/c1cn(C(=O)c2c(Cl)cccc2Cl)c2ccccc12 : 16.8 µM
COc1ccc(N(C)c2nc(Cl)nc3ccn(C)c23)cc1 : > 100 µM
Fc1ccc(NCn2nc(COc3ccccc3Cl)n(/N=C/c3ccc(-c4ccc(Cl)cc4Cl)o3)c2=S)cc1Cl : > 100 µM

Form field, TGI with MDA-MB-231 breast, item O=C(O)c1cncc(C(=O)O)c1 : > 100 µM

Form field, TGI with MDA-MB-231 breast, item O=c1c[n+](-c2ccccc2)[nH]o1 : > 100 µM

====

tested on: OVCAR-4 ovarian; experiment: NCI tumour cell line growth inhibition, 48 h
Measurement kind: TGI

Here is how some compounds turned out for TGI.
Oc1ccc2c3c1OC1C(=NN=C4CCC5(O)C6Cc7ccc(O)c8c7C5(CCN6CC5CC5)C4O8)CCC4(O)C(C2)N(CC2CC2)CCC314 (stereo not given) : > 66 µM
CCOCC(=O)N[C@H]1CCc2cc(OC(=O)COCC)c(OC)c(OC)c2-c2ccc(SC)c(=O)cc21 : > 100 µM

Entry COc1cc(/C=C/c2sc3ccccc3[n+]2C)ccc1N(C)C ; TGI = 40.1 µM

Entry O=C(O)CSc1nnc(CCCCCCCCc2nnc(SCC(=O)O)o2)o1 ; TGI = > 100 µM

Entry O=C1CSC(=S)N1Cc1cccnc1 ; TGI = 25.4 µM

Entry CN1C(=O)c2cc([N+](=O)[O-])ccc2[C@H]2C(=O)c3cc4c(cc3[C@H]21)OCO4 ; TGI = > 100 µM

Entry CC(=O)N1CC[N+](C)(CCCCN2c3ccccc3Sc3cc(N=[N+]=[N-])ccc32)CC1 ; TGI = > 100 µM

Entry COCC(=O)OC1CCn2c1nc1c2C(=O)C(C)=C(NC(C)=O)C1=N (stereo not given) ; TGI = 4.89 µM

Entry COc1ccc(CC2NCCc3cc(OC)c(OC)cc32)cc1 (stereo not given) ; TGI = > 100 µM

Entry c1ccc2c(-c3nc4ccccc4[nH]3)cccc2c1 ; TGI = > 100 µM

Entry CC(=O)[O-].[Ni].c1ccc(/C(=N\Nc2ccccn2)c2ccccn2)cc1 ; TGI = > 59.7 µM

Entry CN(C)CC(C)(C)C(/C=C/c1ccccc1)=N\Nc1ccccc1 ; TGI = 17.9 µM

Entry Cc1cc(N(CCC#N)CCC#N)ccc1/C(N=Nc1ccccc1)=N\NC(=O)c1ccccc1 ; TGI = > 100 µM

Entry COc1ccc(Cn2cnc3cc(C(=O)Nc4cccc5ccccc45)ccc32)c(OC)c1 ; TGI = > 100 µM

Entry CCN(CC)c1nc(N(C)C)c2ccc(OC)cc2n1 ; TGI = > 100 µM

The origin of these recorded values is PubChem BioAssay (NCI).
